tested_system: αIIbβ3 integrin headpiece (UniProt P08514)
Sequence (P08514 32-488, chain 1 of 2): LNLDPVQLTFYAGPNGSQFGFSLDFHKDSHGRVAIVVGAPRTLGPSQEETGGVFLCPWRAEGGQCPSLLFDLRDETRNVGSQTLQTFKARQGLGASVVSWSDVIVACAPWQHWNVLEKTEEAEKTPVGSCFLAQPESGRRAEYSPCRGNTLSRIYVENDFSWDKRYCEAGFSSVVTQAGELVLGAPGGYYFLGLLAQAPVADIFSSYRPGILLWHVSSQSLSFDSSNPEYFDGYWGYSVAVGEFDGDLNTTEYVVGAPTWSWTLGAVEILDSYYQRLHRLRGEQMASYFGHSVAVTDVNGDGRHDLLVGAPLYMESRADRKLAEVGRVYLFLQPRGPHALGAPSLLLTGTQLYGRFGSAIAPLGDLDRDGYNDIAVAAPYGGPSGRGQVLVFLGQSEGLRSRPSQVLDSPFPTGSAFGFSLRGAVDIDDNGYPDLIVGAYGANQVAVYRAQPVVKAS
Sequence (P05106 27-498, chain 2 of 2, further chain): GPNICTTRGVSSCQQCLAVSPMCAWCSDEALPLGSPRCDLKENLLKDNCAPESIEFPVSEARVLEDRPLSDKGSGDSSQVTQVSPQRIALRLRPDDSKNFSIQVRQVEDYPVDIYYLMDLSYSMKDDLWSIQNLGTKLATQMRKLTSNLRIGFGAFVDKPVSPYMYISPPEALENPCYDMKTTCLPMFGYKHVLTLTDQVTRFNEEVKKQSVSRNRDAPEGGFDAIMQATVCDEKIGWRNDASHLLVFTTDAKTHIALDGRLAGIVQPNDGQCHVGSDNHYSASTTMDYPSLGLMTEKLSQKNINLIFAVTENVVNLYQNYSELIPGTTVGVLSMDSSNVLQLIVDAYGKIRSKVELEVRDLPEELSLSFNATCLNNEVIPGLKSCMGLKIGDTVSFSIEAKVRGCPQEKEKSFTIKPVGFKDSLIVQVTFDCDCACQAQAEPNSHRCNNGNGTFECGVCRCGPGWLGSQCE
procedure_summary: crystal structure
measured_parameter: Kd

Input: Form field: Kd recorded for GRGDSP peptide with αIIbβ3 integrin headpiece (UniProt P08514) (enter value)
Output: 0.34 to 10 mM
